Target: T1, human CD33 on primary human dendritic cells (human, UniProt P20138 18-364)
T1 construct: Endogenous CD33 of monocyte-derived dendritic cells from healthy donors; also called Siglec-3
T1 sequence (P20138 18-364): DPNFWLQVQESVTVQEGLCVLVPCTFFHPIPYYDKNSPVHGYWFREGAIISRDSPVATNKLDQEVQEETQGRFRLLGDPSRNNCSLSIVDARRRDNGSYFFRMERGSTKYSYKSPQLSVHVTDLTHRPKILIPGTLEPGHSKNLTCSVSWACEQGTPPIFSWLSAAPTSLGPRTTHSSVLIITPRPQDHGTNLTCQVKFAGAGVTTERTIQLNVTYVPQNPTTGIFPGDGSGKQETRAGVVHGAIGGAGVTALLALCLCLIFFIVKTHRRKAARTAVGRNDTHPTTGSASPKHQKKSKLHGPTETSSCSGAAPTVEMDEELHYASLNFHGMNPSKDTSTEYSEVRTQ
Experiment: flow cytometry on primary human dendritic cells, antibody dilutions, fluorescent anti-human IgG secondary
Endpoint Label: binding result

anti-CD33 antibody 6C7H3 (antibody, V domains shown, Humanized 6C7; VH/VL only) VH: EVQLVESGGGLVQPGGSLRLSCAASGFTFSNYCMNWVRQAPGKGLEWVGEIRLKSNNYVTNYAASVKGRFTISRDDSKNSLYLQMNSLKTEDTAVYYCARDGYYVPFAYWGQGTLVTVSS VL: QLVLTQSPSASASLGASVKLTCTLSSQHSTYTIEWYQQQPEKGPRYLMELKKDGSHSTGDGIPDRFSGSSSGAERYLTISSLQSEDEADYYCGVGDTIKEQFVYVFGGGTKLTVL
binds
